experimental.details: T. gondii ME49Luc in HeLa cells, luciferase assay, 72 h, no IFN-y (AID 1259421)
setup.conditions: active compounds read low, concentration not given here
Hit rate of the full screen: of about 6,400 compounds, about 610 (9.5%) were called active. This excerpt belongs to a sample that is enriched for actives.
endpoint.label: activity change, negative = inhibition (%)
The figure you give is taken to be in %; do not add the unit.

# count of solved cases: 3
- compound: "CC1(C)C(=O)C=C[C@@]2(C)C1C=C[C@]1(C)C2CC[C@@]2(C)[C@H](c3ccoc3)OC(=O)[C@H]3O[C@]321 (stereo partly drawn)"
  activity change, negative = inhibition, %: -89.3
- compound: "COc1c(N2C[C@@H]3CCCN[C@@H]3C2)c(F)cc2c(=O)c(C(=O)O)cn(C3CC3)c12"
  activity change, negative = inhibition, %: -7.38
- compound: "NC1CCN(c2c(F)cc3c(=O)c(C(=O)O)cn(C4CC4)c3c2Cl)C1 (stereo not drawn)"
  activity change, negative = inhibition, %: -79.3

Kindly consider the entry below.
Q: Value lookup for activity change, negative = inhibition; key = CC1COC2(CCN(c3nc(=O)c4cc(C(F)(F)F)cc([N+](=O)[O-])c4s3)CC2)O1 (stereo not drawn)
A: 301

====

// activity change, negative = inhibition lookup, one value per entry
experimental.details: T. gondii ME49Luc in HeLa cells, luciferase assay, 72 h, no IFN-y (AID 1259421)
setup.conditions: active compounds read low, concentration not given here
The campaign covered roughly 6,400 compounds. About 610 (9.5%) were called active. This is one part of a sample in which actives are shown more often than they occur.
Your answer is read as %, so omit the unit and give the number.

Use the examples below as a reference point.
- compound: "Cc1cc(Nc2cc(CN3CCOCC3)c3nc(C)c(Cc4ccc(Cl)cc4F)n3n2)n[nH]1"
  result.unit: "%"
  activity change, negative = inhibition: -76.1
- compound: "C#C[C@]1(O)CC[C@H]2[C@@H]3CCC4=CC(=O)CC[C@@H]4C3CC[C@@]21CC (stereo not given in full)"
  result.unit: "%"
  activity change, negative = inhibition: -83.6
- compound: "CC1C(=O)C(=O)[C@@H]2O[C@@H]2C1=O (stereo not given in full)"
  result.unit: "%"
  activity change, negative = inhibition: 7.42

Q: Please look up its activity change, negative = inhibition: C#C[C@]1(O)CCC2C3CCC4=CC(=O)CCC4C3C(=C)CC21CC (stereo not given in full)
A: 16.2

Q: Continue with `C#C[C@]1(O)CC[C@H]2[C@@H]3CCC4=CC(=O)CC[C@@H]4[C@H]3CC[C@@]21C`
A: -67.2

Q: Follow-up item: `Clc1cccc(C=NC=Nc2cccc(Cl)c2)c1`
A: -3.22

Q: C#C[C@]1(O)CC[C@@H]2C3[C@H](C)CC4=C(CCC(=O)C4)[C@H]3CC[C@@]21C (stereo not given in full) , same question.
A: 5.27

Q: # iterate: C=CC1CN2CCC1CC2[C@@H](O)c1ccnc2ccc(OC)cc12 (stereo not given in full)
A: 21.1

Q: Record: `CCCCCCCCCCCC[N+](C)(C)CCOc1ccccc1`
A: 14.1

Q: Repeat for the following compound: `CCN(CC)CC(=O)Oc1ccc(NC(C)=O)cc1`
A: 7.5
